Every entry's value here was drawn from patent US12605353B2.

Test system: Min6 cells
Test: Cell viability test (WST-1) in Min6 cells
Format: cell-based, mouse
Conditions: read-out: CC50 values
measurement kind: CC50 (µM)
Note: unit µM is implicit; provide only the numeric part.

QUERY: I have this molecule here, COc1ccc(N2C(=O)/C(=C\c3ccc([N+](=O)[O-])s3)SC2=S)cc1 [CCF642, reference compound] , and I need its recorded CC50.
RESULT: 23.9

###

Test system: Min6 cells
Assay: Glucose-stimulated insulin secretion in Min6 cells (insulin ELISA)
Format: cell-based, mouse
Settings: Table 5; Min6 cells
Quick list: SI (CC50/EC50) per entry.

QUERY: I have this compound here, C#CC(=O)Nc1cc(OC)c(OCCCN(C(=O)C#C)C(=O)Cc2cccc(C(F)(F)F)c2)cc1C(=O)OC [58t] , and I need its recorded SI (CC50/EC50).
RESULT: >3333

QUERY: I have this compound here, COc1ccc(N2C(=O)/C(=C\c3ccc([N+](=O)[O-])s3)SC2=S)cc1 [CCF642, reference compound] , and I need its recorded SI (CC50/EC50).
RESULT: 95.6

QUERY: I have this compound here, CC#CC#CC#CC#CCCC(CO)O[C@@H]1O[C@H](CO)[C@@H](O)[C@H](O)[C@H]1O (some centres unmarked) [CPD P1, cytopiloyne, reference compound] , and I need its recorded SI (CC50/EC50).
RESULT: >64.5

QUERY: I have this compound here, C#CC(=O)Nc1cc(OC)c(OCCCN(C(=O)C#C)C(=O)c2cnco2)cc1C(=O)OC [58v] , and I need its recorded SI (CC50/EC50).
RESULT: >20000

QUERY: I have this compound here, `C#CC(=O)Nc1cc(OC)c(OC)cc1C(=O)O` , and I need its recorded SI (CC50/EC50).
RESULT: >1666.7
